Numbered stars: 1 amine (or outer) side, 2 acyl side, 3 side chain; on linkers, the order of the positions; unused ones are H or OH. Square brackets hold non-standard residues; d marks the D form. Peptide text beside a SMILES is read from it. Nip(3R) = O=C([C@@H]1CCCN([*:1])C1)[*:2]; Dmt = Cc1cc(O)cc(C)c1C[C@H](N)C(=O)O; Inp = O=C(O)C1CCNCC1
# Ki per entry for UniProt P35372
# Sequence (P35372 whole entry): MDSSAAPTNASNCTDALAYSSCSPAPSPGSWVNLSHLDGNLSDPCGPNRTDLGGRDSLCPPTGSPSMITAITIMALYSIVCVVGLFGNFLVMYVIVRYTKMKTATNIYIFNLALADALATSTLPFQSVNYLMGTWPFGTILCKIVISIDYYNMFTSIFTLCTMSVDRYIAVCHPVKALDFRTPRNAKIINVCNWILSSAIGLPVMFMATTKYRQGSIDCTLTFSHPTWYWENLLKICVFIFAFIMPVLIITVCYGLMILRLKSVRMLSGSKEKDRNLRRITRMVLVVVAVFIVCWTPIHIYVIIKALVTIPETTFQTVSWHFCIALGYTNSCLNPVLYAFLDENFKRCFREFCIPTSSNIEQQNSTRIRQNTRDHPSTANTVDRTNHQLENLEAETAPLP

Known Ki results, listed for orientation:
Can you look up the measured Ki of CC(C)C[C@H](NC(=O)C1CCN(C(=O)[C@@H](N)Cc2ccc(O)cc2)CC1)C(=O)N[C@@H](CC(=O)O)C(=O)N[C@@H](CC(C)C)C(=O)N[C@@H](Cc1ccccc1)C(N)=O [analog 7, Tyr-Inp-Leu-Asp-Leu-Phe-NH2] (H-Y[Inp]LDLF-NH2) for me?
> 1000 nM

For Cc1cc(O)cc(C)c1C[C@H](N)C(=O)N1CCC[C@H]1C(=O)N[C@@H](CC(C)C)C(=O)N[C@@H](CC(=O)O)C(=O)N[C@@H](CC(C)C)C(=O)N[C@@H](Cc1ccccc1)C(=O)O [analog 1, Dmt-Pro-Leu-Asp-Leu-Phe-OH] (H-[Dmt]PLDLF-OH) , what is its reported Ki?
599 nM

State the recorded Ki for this entry: Cc1cc(O)cc(C)c1C[C@H](N)C(=O)N1CCC[C@@H](C(=O)N[C@@H](CC(C)C)C(=O)N[C@@H](CC(=O)O)C(=O)N[C@@H](CC(C)C)C(=O)N[C@@H](Cc2ccccc2)C(=O)O)C1 [analog 4, Dmt-(R)-Nip-Leu-Asp-Leu-Phe-OH] (H-[Dmt][Nip(3R)]LDLF-OH)
> 1000 nM

# Ki lookup, item Cc1cc(O)cc(C)c1C[C@H](N)C(=O)N1CCC(C(=O)N[C@@H](CC(C)C)C(=O)N[C@@H](CC(=O)O)C(=O)N[C@@H](CC(C)C)C(=O)N[C@@H](Cc2ccccc2)C(=O)O)CC1 [analog 5, Dmt-Inp-Leu-Asp-Leu-Phe-OH] (H-[Dmt][Inp]LDLF-OH)
712 nM

Quick one: Ki of CC(C)C[C@H](NC(=O)C1CCN(C(=O)[C@@H](N)Cc2ccc(O)cc2)CC1)C(=O)N[C@@H](CC(=O)O)C(=O)N[C@@H](CC(C)C)C(=O)N[C@@H](Cc1ccccc1)C(=O)O [analog 3, Tyr-Inp-Leu-Asp-Leu-Phe-OH] (H-Y[Inp]LDLF-OH) ?
> 1000 nM

Pending compound:
Suppose we examine the compound CC(C)C[C@H](NC(=O)[C@@H]1CCCN(C(=O)[C@@H](N)Cc2ccc(O)cc2)C1)C(=O)N[C@@H](CC(=O)O)C(=O)N[C@@H](CC(C)C)C(=O)N[C@@H](Cc1ccccc1)C(=O)O [analog 2, Tyr-(R)-Nip-Leu-Asp-Leu-Phe-OH] (H-Y[Nip(3R)]LDLF-OH) ; what Ki value has been reported?
> 1000 nM
